# study target: Prostaglandin E2 receptor EP4 subtype (Homo sapiens)
# Sequence (P35408 whole entry): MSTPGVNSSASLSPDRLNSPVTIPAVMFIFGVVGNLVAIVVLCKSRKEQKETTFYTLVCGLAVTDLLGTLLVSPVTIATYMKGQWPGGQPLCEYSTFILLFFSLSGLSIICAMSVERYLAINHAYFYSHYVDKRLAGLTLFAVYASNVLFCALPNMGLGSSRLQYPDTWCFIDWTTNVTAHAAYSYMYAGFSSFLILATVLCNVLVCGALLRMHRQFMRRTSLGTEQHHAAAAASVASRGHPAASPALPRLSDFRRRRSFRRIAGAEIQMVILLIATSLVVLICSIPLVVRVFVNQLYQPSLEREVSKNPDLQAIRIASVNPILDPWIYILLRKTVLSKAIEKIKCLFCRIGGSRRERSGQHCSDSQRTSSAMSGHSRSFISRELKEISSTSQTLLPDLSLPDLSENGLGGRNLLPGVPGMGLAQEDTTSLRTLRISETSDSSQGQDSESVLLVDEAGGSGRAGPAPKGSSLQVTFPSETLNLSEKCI
# protocol: Binding affinity towards EP4 receptor expressed in HEK293 ebna cells recombinantly expressing the corresponding human prostanoid cDNAs
pKi: −log10 of the molar value.
Item-by-item account of pKi
measurement label: pKi

INSERT INTO measurements (molecule, measurement_label, observed_result) VALUES
  ('CCCCCC(O)CC[C@@H]1CCC(=O)N1CCCCCCC(=O)O (some centres undefined)', 'pKi', 5.95),
  ('O=C1CC[C@H](/C=C/C(O)Cc2ccccc2)N1CCCCSCc1nn[nH]n1 (some centres undefined)', 'pKi', 7.18),
  ('CCCCCC(O)/C=C/[C@H]1CCC(=O)N1CCCCCCC(=O)O (some centres undefined)', 'pKi', 8.22),
  ('O=C(O)CSCCCCN1C(=O)CC[C@@H]1/C=C/C(O)Cc1ccccc1 (some centres undefined)', 'pKi', 7.89),
  ('O=C1CC[C@H](/C=C/[C@@H](O)Cc2ccccc2)N1CCCCCCc1nnn[nH]1', 'pKi', 8.92),
  ('COC(=O)CSCCCCN1C(=O)CC[C@@H]1/C=C/C(O)Cc1ccccc1 (some centres undefined)', 'pKi', 6.35),
  ('O=C(O)CCCCCCN1C(=O)CC[C@@H]1/C=C/C(O)C1(c2ccccc2)CC1 (some centres undefined)', 'pKi', 7.92),
  ('O=C(O)CCCCCCN1C(=O)CC[C@@H]1/C=C/C(O)C1CCCCC1 (some centres undefined)', 'pKi', 5.46),
  ('O=C(O)CCCCCCN1C(=O)CC[C@@H]1/C=C/C(O)CCc1ccccc1 (some centres undefined)', 'pKi', 6.99),
  ('CC(C)(c1ccccc1)C(O)/C=C/[C@H]1CCC(=O)N1CCCCCCC(=O)O (some centres undefined)', 'pKi', 7.21),
  ('O=C1CC[C@H](/C=C/C(O)Cc2ccccc2)N1CCCCSc1nnn[nH]1 (some centres undefined)', 'pKi', 6.61),
  ('CCCCCC(O)CC[C@H]1CCC(=O)N1CCCCCCC(=O)O (some centres undefined)', 'pKi', 7.55),
  ('O=C(O)CCSCCCCN1C(=O)CC[C@@H]1/C=C/C(O)Cc1ccccc1 (some centres undefined)', 'pKi', 6.85),
  ('O=C1CC[C@H](/C=C/[C@H](O)Cc2ccccc2)N1CCCCCCc1nnn[nH]1', 'pKi', 6.64),
  ('CCCCCC(O)/C=C/[C@@H]1CCC(=O)N1CCCCCCC(=O)O (some centres undefined)', 'pKi', 5.85),
  ('O=C1CC[C@H](/C=C/[C@@H](O)Cc2ccccc2)N1CCCCCCc1nnn[nH]1.O=C1CC[C@H](/C=C/[C@H](O)Cc2ccccc2)N1CCCCCCc1nnn[nH]1', 'pKi', 8.60),
  ('CCCCCC(O)CCC1CCC(=O)N1CCCCCCC(=O)O (centres undefined)', 'pKi', 7.46),
  ('CC(O)(/C=C/[C@H]1CCC(=O)N1CCCCCCC(=O)O)Cc1ccccc1 (some centres undefined)', 'pKi', 5.68),
  ('COCc1cccc(CC(O)/C=C/[C@H]2CCC(=O)N2CCCCCCC(=O)O)c1 (some centres undefined)', 'pKi', 8.44);
